Assign IC50 to each entry below.
Molecular target: hSERT (Homo sapiens, UniProt P31645)
Sequence (P31645 whole entry): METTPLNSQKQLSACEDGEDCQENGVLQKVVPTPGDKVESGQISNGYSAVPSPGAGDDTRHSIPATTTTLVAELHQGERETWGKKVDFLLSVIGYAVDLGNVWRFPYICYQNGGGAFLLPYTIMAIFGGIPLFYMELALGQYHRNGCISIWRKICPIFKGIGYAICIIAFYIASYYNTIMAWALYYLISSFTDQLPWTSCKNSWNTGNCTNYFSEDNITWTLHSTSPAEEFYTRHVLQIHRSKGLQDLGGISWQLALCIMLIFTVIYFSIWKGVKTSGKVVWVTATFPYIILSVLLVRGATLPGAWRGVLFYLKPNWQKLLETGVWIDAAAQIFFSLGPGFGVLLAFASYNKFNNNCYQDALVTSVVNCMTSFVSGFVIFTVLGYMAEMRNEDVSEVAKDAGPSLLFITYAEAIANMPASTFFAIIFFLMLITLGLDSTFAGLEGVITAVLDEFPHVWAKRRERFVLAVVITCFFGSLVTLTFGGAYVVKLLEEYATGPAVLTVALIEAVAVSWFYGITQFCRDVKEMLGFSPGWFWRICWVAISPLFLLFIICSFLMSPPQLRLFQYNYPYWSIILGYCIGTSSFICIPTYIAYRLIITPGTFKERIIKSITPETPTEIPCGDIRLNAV
Test: SERT radioligand binding assay ([125I]RTI-55, HEK-293 membranes)
Settings: recombinant HEK-293 membranes
Source text: Recombinant HEK-293 cells expressing either the hSERT, hDAT, or hNET proteins were harvested from T-175 flasks as follows. The medium was removed from the flasks and the cells rinsed with HBSS without Ca and without Mg. […] The radioligand concentration chosen for each assay corresponds to the Kd concentration determined through saturation binding analysis for each assay.
Where a name gives a salt, the structure may show the parent alone.
Answer with a number only, understood to be in nM.

Exercise: Quick check: IC50 of Clc1ccc(C2CNCc3cc(-c4ccc5ncnn5c4)ccc32)cc1Cl (single isomer, unassigned; (-)) [Example 1 (−)-enantiomer] ?
Solution: 4.2

Exercise: Quick check: IC50 of Clc1ccc(C2CNCc3cc(-c4ccc5ncnn5c4)ccc32)cc1Cl (single isomer, unassigned; enantiomer 7) [Example 1 (+)-enantiomer, L-tartrate salt] ?
Solution: 1.8
